These entries and their values trace back to BindingDB's records for doi:10.1021/jm00092a019.

EC50 for assorted molecules
- assay-summary: Inhibition of platelet aggregation using adenosine diphosphate (ADP) as activating agent in human platelet rich plasma (PRP)
endpoint: EC50 (µM)

CN(C(=O)CCCOc1ccc2nc3[nH]c(=O)n(C)c3cc2c1)C1CCCCCC1 1.22
CN(C(=O)CCCCc1ccc2nc3[nH]c(=O)[nH]c3cc2c1)C1CCCCC1 1.1
O=C(CCCOc1ccc2nc3[nH]c(=O)[nH]c3cc2c1)NC1CCCCCC1 0.016
CN(C(=O)CCCOc1ccc2nc3c(cc2c1)[nH]c(=O)n3C)C1CCCCC1 33
CN(C)C(=O)CCCOc1ccc2nc3[nH]c(=O)[nH]c3cc2c1 0.19
CN(C(=O)CCCCOc1ccc2nc3[nH]c(=O)[nH]c3cc2c1)C1CCCCCC1 0.001
CN(C(=O)CCCOc1ccc2nc3[nH]c(=O)[nH]c3cc2c1)C1CCCCC1 0.007
COC(=O)CCCOc1ccc2nc3c(cc2c1)[nH]c(=O)n3C 29.9
O=C(O)CN(C(=O)CCCOc1ccc2nc3[nH]c(=O)[nH]c3cc2c1)C1CCCCC1 9.6
O=c1[nH]c2cc3cc(OCCCCc4nnn[nH]4)ccc3nc2[nH]1 51
